B1: NCF4 (parent)
chain: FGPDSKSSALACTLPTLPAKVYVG

Variants of: B1
Procedure summary: protein stability index of a GFP-peptide fusion (GPS, HEK-293T) (PSI 1-6); higher = more stable;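 note: lentivirally expressed fusions sorted by FACS into six bins by GFP to DsRed ratio, PSI derived from sequencing read proportions per bin multiplied by bin number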
Measurement conditions: c terminus: a fixed tail appended
Rule: 1 for protein stability index not less than 2, -1 for anything less.

Please review the entries below; each comes with its answer.
>>> group_label("A11K")
1
>>> group_label("P15T")
-1

Say whether D4G shows protein stability index of 2 or more.
1

Reported protein stability index at or above 2? T13S
1

Check the entry D4W : does protein stability index equal or exceed 2?
-1
